- system_name: mGluR3 (Rattus norvegicus)
- measurement_notes: Calcium imaging (G protein chimera, GCaMP6f) in HEK 293 T cells
- condition_notes: read-out: Glutamate EC50, calcium imaging; normalized to saturating (1 mM) glutamate
observed_property: pEC50
Give bare numbers, as −log10 of the molar value.

-- ask Please give the measured pEC50 for this compound: N[C@@H](CCC(=O)O)C(=O)O [glutamate]
-- reply 6.25

---

- system_name: mGluR3 (Rattus norvegicus)
- measurement_notes: Inter-LBD FRET (N-terminal SNAP-tags), live cells
- condition_notes: read-out: Glutamate EC50, LBD FRET; normalized to saturating (1 mM) glutamate; unit inferred
observed_property: EC50 (nM)
Numbers only, in nM.

-- ask Please give the measured EC50 for this molecule: N[C@@H](CCC(=O)O)C(=O)O [glutamate]
-- reply 640

---

- system_name: mGluR2-3xTM4 (Rattus norvegicus, UniProt P31421, A677S/A681F/A685G)
- Sequence (P31421 19-872 A677S/A681F/A685G): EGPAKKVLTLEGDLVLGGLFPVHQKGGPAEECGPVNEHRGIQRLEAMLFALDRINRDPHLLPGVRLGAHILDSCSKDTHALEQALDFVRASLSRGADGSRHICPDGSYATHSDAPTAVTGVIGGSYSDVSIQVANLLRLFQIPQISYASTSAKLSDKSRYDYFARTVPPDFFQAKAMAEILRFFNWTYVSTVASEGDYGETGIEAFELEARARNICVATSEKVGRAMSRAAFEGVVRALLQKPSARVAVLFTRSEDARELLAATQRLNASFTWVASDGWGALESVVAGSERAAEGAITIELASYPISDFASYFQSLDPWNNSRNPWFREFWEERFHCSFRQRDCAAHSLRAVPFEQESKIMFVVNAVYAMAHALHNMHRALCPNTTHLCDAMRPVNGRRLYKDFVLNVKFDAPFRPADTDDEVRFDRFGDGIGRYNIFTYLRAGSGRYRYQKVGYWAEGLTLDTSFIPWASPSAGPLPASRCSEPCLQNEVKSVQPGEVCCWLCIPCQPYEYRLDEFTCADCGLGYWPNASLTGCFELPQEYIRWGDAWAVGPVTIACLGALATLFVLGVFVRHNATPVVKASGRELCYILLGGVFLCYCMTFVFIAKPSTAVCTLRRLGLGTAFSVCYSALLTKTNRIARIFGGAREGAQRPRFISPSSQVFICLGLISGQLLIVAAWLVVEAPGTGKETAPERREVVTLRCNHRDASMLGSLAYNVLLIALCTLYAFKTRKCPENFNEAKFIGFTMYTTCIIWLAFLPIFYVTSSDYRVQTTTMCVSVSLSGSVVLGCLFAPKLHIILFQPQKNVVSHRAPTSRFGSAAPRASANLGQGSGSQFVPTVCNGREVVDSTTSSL
- measurement_notes: Calcium imaging (G protein chimera, GCaMP6f) in HEK 293 T cells
observed_property: pEC50
One number for each entry, as −log10 of the molar value.

-- ask What pEC50 appears in the records for this molecule with mGluR2-3xTM4 (Rattus norvegicus, UniProt P31421, A677S/A681F/A685G)? COc1ccccc1Oc1ccc(N(Cc2cccnc2)S(=O)(=O)CC(F)(F)F)cc1 [LY487379]
-- reply 6.57

---

- system_name: mGluR2-I779A (Rattus norvegicus, UniProt P31421, I779A)
- Construct: we performed calcium imaging experiments with mutations in the full-length mGluR2 background
- Sequence (P31421 19-872 I779A): as the sequence (P31421 19-872 A677S/A681F/A685G) above, with S659A, F663A, G667A, I761A counted along it
- measurement_notes: Calcium imaging in HEK 293 T cells
- condition_notes: read-out: LY48 EC50, calcium imaging
observed_property: pEC50
Numbers only, as −log10 of the molar value.

-- ask What pEC50 appears in the records for this compound with mGluR2-I779A (Rattus norvegicus, UniProt P31421, I779A)? COc1ccccc1Oc1ccc(N(Cc2cccnc2)S(=O)(=O)CC(F)(F)F)cc1 [LY487379]
-- reply 5.26

---

- system_name: mGluR3-F690A (Rattus norvegicus, UniProt P31422, F690A)
- Sequence (P31422 23-879 F690A): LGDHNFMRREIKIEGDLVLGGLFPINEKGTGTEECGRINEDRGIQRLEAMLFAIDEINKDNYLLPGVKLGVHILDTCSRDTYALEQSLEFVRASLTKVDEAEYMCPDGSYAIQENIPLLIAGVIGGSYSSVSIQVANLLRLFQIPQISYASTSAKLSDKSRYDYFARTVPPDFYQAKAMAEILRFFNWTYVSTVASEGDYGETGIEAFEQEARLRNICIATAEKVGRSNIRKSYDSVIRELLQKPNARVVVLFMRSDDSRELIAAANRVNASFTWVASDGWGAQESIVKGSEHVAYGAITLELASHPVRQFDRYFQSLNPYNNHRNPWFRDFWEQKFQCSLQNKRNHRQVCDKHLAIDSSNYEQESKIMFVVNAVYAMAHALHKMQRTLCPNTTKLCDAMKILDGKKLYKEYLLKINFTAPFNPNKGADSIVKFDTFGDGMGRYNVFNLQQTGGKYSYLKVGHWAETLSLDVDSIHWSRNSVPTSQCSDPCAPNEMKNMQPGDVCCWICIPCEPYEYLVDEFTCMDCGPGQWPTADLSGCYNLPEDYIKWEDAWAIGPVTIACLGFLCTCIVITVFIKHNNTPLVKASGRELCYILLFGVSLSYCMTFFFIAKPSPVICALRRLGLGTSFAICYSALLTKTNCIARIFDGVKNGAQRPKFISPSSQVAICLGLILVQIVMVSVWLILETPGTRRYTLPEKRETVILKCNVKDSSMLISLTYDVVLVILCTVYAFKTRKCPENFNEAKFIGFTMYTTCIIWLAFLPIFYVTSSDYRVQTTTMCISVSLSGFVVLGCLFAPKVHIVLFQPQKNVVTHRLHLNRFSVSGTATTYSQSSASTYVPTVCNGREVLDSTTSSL
- measurement_notes: Calcium imaging in HEK 293 T cells
- condition_notes: read-out: Glutamate EC50, calcium imaging; normalized to saturating (1 mM) glutamate
observed_property: pEC50
Give bare numbers, as −log10 of the molar value.

-- ask Please give the measured pEC50 for this compound: N[C@@H](CCC(=O)O)C(=O)O [glutamate]
-- reply 5.02

---

- system_name: mGluR3-3xTM4 (Rattus norvegicus, UniProt P31422, F690A/G694A/S686A)
- Sequence (P31422 23-879 S686A/F690A/G694A): as the sequence (P31422 23-879 F690A) above, with S664A, G672A counted along it
- measurement_notes: Calcium imaging (G protein chimera, GCaMP6f) in HEK 293 T cells
- condition_notes: read-out: Glutamate EC50, calcium imaging; normalized to saturating (1 mM) glutamate
observed_property: EC50 (µM)
Numbers only, in µM.

-- ask Please give the measured EC50 for this compound: N[C@@H](CCC(=O)O)C(=O)O [glutamate]
-- reply 11

---

- system_name: mGluR3 (Rattus norvegicus, UniProt P31422, INS669ASEIGTGFPFDPHYVEVLGERMHYVDVGPRDGTPVLFLHGNPTSSYVWRNIIPHVAPTHRCIAPDLIGMGKSDKPDLGYFFDDHVRFMDAFIEALGLEEVVLVIHDWGSALGFHWAKRNPERVKGIAFMEFIRPIPTWDEWPEFARETFQAFRTTDVGRKLIIDQNVFIEGTLPMGVVRPLTEVEMDHYREPFLNPVDREPLWRFPNELPIAGEPANIVALVEEYMDWLHQSPVPKLLFWGTPGVLIPPAEAARLAKSLPNCKAVDIGPGLNLLQEDNPDLIGSEIARWLSTLEISGLE)
- Sequence (P31422 with tags, fused parts or gaps with the stated changes): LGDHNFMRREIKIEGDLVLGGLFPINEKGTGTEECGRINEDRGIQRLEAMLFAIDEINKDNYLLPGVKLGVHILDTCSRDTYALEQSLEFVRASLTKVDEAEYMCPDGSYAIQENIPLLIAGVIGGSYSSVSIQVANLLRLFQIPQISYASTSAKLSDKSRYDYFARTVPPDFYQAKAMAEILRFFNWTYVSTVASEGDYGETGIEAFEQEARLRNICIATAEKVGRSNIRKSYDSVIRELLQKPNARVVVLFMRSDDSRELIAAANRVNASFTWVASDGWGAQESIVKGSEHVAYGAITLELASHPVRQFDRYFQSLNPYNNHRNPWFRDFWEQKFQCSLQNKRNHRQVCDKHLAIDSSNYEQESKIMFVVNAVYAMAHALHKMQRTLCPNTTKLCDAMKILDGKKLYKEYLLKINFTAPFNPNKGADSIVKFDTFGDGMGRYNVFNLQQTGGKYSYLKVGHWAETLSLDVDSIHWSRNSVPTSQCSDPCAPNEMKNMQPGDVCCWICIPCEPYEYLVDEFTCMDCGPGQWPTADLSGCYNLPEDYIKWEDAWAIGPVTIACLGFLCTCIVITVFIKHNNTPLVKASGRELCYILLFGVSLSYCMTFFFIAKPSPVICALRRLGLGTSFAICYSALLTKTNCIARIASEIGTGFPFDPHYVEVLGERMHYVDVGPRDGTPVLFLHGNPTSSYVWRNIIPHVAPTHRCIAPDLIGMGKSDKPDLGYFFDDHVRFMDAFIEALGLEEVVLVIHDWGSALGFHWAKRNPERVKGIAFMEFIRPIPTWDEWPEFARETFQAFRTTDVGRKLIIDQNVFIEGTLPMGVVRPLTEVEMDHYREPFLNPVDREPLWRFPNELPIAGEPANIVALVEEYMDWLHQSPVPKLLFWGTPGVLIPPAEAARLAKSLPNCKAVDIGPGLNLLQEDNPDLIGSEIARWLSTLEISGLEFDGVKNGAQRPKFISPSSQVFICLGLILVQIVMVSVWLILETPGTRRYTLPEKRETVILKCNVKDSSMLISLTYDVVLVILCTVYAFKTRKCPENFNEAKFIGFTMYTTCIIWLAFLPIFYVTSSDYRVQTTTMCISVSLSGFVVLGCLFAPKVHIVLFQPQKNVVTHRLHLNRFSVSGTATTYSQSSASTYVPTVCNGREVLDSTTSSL
- measurement_notes: Inter-TMD FRET sensor (HaloTag in ICL2), live cells;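 further: receptor HaloTag labeled with JF549 donor and JF646 acceptor (1:3), FRET taken as acceptor over summed donor plus acceptor fluorescence intensity, imaged at room temperature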
- condition_notes: read-out: Glutamate EC50, inter-TMD FRET; normalized to saturating (1 mM) glutamate; unit inferred
observed_property: pEC50
One number for each entry, as −log10 of the molar value.

-- ask Please give the measured pEC50 for this molecule: N[C@@H](CCC(=O)O)C(=O)O [glutamate]
-- reply 6.64

---

- system_name: mGluR3-G694A (Rattus norvegicus, UniProt P31422, G694A)
- Sequence (P31422 23-879 G694A): as the sequence (P31422 23-879 F690A) above, with A668F, G672A counted along it
- measurement_notes: Calcium imaging in HEK 293 T cells
- condition_notes: read-out: Glutamate EC50, calcium imaging; normalized to saturating (1 mM) glutamate
observed_property: EC50 (µM)
One number for each entry, in µM.

-- ask Please give the measured EC50 for this compound: N[C@@H](CCC(=O)O)C(=O)O [glutamate]
-- reply 4.66

Value source: paper PMC8102066
